target_system: UniProt Q38C41
Sequence (Q38C41 whole entry): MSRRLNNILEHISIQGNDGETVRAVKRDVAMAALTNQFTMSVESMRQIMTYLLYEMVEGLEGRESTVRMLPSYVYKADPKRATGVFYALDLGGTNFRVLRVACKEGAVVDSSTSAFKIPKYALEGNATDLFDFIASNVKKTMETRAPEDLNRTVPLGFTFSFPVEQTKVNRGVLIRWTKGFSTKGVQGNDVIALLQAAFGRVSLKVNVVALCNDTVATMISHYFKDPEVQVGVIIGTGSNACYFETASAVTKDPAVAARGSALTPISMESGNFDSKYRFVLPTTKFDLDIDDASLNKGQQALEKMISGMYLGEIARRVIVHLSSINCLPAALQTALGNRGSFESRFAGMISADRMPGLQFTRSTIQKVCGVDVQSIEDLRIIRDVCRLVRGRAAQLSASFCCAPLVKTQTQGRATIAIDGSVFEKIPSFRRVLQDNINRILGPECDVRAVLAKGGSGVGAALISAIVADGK
run_description: Confirmation assay for inhibitors of Trypanosoma brucei hexokinase 1-Analogue-first series. [Related pubchem assays (depositor defined):AID1430, AID1632, AID2516, AID2560, AID2579, AID2600, AID449725, AID492951]
Format: functional
Active and inactive are the calls of the source.
Lab note: assign the record to one of active, inactive

Called result for `Cn1sc(=O)c2ccccc21` inactive

Called result for `C=C(C)c1ccc(C(=O)Nc2cc(Cl)ccc2C(=O)O)cc1` active

Called result for `COc1ccc(C(=O)Nc2ccccc2C(=O)O)cc1Cl` inactive

Called result for `O=c1c2cc(F)ccc2sn1-c1ccccc1` active

Called result for `COC(=O)c1ccc(Cl)cc1NC(=O)c1ccc(OC)cc1` inactive

Called result for `Cc1ccc(C(=O)Nc2cc(Cl)ccc2C(=O)O)cc1` active

----------
target_system: CAAX prenyl protease 2 (Saccharomyces cerevisiae S288c, UniProt Q03530)
Sequence (Q03530 whole entry): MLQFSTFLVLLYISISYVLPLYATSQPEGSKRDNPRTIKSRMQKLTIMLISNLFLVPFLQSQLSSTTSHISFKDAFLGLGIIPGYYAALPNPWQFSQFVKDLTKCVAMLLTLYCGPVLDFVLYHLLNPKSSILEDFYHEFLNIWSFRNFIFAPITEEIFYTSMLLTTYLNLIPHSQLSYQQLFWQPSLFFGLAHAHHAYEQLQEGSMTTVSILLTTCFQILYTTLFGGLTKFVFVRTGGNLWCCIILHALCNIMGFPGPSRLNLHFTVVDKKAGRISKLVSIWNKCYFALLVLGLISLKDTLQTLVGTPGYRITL
Assay type: biochemical
Calls of active or inactive are those of the source.
Lab note: assign the record to one of y = active, n = inactive

Called result for `COc1cc2cc(C(=O)O)[nH]c2c(OC)c1OC` n

Called result for `COc1cc2c(cc1OC)C(C)=NC1(CCCCC1)C2` y

Called result for `Cc1ccc2nc(-c3ccccc3)cn2c1` n

Called result for `COc1ccc(-c2c(C)oc3c(CN4CCN(C)CC4)c(O)ccc3c2=O)cc1` y

----------
target_system: Rac GTPase-activating protein 1 (Homo sapiens)
Sequence (Q9H0H5 whole entry): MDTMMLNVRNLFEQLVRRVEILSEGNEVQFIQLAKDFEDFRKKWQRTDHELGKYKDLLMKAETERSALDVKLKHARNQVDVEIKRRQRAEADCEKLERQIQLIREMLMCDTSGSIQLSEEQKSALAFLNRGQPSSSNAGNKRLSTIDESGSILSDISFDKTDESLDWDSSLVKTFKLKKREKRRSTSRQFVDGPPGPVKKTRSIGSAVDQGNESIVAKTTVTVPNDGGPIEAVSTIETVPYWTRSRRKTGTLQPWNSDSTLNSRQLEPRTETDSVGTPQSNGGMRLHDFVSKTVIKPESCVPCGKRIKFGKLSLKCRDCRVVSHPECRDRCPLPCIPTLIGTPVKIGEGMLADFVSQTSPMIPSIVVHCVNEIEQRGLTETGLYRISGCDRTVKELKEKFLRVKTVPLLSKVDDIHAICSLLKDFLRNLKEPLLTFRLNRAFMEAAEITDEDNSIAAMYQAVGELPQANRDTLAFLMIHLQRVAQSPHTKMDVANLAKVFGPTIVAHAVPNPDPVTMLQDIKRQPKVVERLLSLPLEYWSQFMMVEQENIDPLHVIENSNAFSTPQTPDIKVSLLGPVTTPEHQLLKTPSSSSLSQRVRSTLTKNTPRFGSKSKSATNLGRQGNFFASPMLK
run_description: blockers of MgcRacGAP-driven Rac1 GTP hydrolysis – biochemical, ADP Hunter fluorescence, primary and confirmatory, confirmation (AID 624330)
Type: functional
Activity calls are given as the source filed them.
measured_metric: IC50

Indicate its recorded IC50; the compound in question is `O=c1c2cc(F)ccc2sn1-c1ccccc1` 35.5 µM (active)

Indicate its recorded IC50; the compound in question is `O=C(c1ccccc1F)N1CCN(Cc2ccccc2F)CC1` 182 µM (active)

Indicate its recorded IC50; the compound in question is `CCC(=O)Nc1ccc(Nc2ccccc2)cc1` 53.6 µM (active)

Indicate its recorded IC50; the compound in question is `Cc1ccn2c(S)nnc2c1` 19.4 µM (active)

Indicate its recorded IC50; the compound in question is `Oc1ccc(/C=N/n2c(-c3ccco3)cs/c2=N\c2cccnc2)c(O)c1` 43.3 µM (active)

Indicate its recorded IC50; the compound in question is `COc1ccc(CNc2ccc(N3CCN(C(C)=O)CC3)cc2)cc1OC` 12 µM (active)

Indicate its recorded IC50; the compound in question is `CCCCn1c(SCC(=O)c2ccc(O)c(O)c2)nc2ccsc2c1=O` 49.7 µM (active)

Indicate its recorded IC50; the compound in question is `COc1cc(C(S)=NC2CCCCC2)ccc1O` 32.6 µM (active)

Indicate its recorded IC50; the compound in question is `OCCCCNc1cccc2ccccc12` 22.8 µM (active)

Indicate its recorded IC50; the compound in question is `Nc1ccc(N2CCCC2)c(S(=O)(=O)Nc2cccc(C(F)(F)F)c2)c1` 120 µM (active)

Indicate its recorded IC50; the compound in question is `CCOC(=O)c1ccc(S(=O)(=O)Nc2nc3cc(S(=O)(=O)NC4=NCCCCC4)ccc3s2)cc1` 107 µM (active)

Indicate its recorded IC50; the compound in question is COc1ccc(CN2CCC(N3CC(C)OC(C)C3)CC2)c(OC)c1OC (configuration not stated) 66 µM (active)
